Documented IC50 across a set of compounds
target: Human CGRP1 Receptor (Homo sapiens, UniProt O60894+Q16602); construct: endogenous in cells; host or cells: SK-N-MC cells (membrane homogenate); experiment: CGRP Binding Assay ([125I]-CGRP radioligand displacement, SK-N-MC membrane homogenate); conditions: [125I]-CGRP displacement, SK-N-MC homogenate, room temperature 2 h; read-out: Human CGRP1 Receptor IC50
Sequence (Q16602 23-461): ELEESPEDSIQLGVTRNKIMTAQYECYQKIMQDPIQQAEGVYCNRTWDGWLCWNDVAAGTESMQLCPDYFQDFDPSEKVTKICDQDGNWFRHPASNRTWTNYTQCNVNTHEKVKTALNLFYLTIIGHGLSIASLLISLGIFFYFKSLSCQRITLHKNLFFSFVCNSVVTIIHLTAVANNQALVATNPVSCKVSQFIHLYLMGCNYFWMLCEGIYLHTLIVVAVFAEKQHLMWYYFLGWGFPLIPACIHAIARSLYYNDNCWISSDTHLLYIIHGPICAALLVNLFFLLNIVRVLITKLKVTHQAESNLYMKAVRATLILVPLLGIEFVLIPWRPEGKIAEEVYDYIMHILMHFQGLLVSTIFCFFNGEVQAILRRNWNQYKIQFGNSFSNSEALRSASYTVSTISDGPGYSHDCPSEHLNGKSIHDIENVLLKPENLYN
Sequence (O60894 27-148): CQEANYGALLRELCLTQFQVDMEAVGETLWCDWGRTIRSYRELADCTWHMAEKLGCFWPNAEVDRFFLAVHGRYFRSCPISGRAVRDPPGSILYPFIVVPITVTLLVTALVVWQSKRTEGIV
observed-property: IC50

[[record]]
compound = "Cc1cc(CC(NC(=O)N2CCC(N3Cc4ccccc4NC3=O)CC2)c2nc(Cc3ccncc3)no2)cc2cn[nH]c12 (racemic) [Example 12]"
system_tested = "Human CGRP1 Receptor (Homo sapiens, UniProt O60894+Q16602)"
observed_property = "IC50"
value = "10 to 100 nM"

[[record]]
compound = "Cc1cc(CC(OC(=O)N2CCC(N3Cc4cccc(F)c4NC3=O)CC2)c2ccccn2)cc2cn[nH]c12 (stereo not shown) [Example 55]"
system_tested = "Human CGRP1 Receptor (Homo sapiens, UniProt O60894+Q16602)"
observed_property = "IC50"
value = "< 10 nM"

[[record]]
compound = "Cc1cc(CC(NC(=O)N2CCC(N3Cc4ccccc4NC3=O)CC2)c2ccc3ccccc3n2)cc2cn[nH]c12 (racemic) [Example 34]"
system_tested = "Human CGRP1 Receptor (Homo sapiens, UniProt O60894+Q16602)"
observed_property = "IC50"
value = "< 10 nM"

[[record]]
compound = "Cc1cc(CC(NC(=O)N2CCC(N3Cc4ccccc4NC3=O)CC2)c2ncc(Br)[nH]2)cc2cn[nH]c12 (racemic) [Example 86]"
system_tested = "Human CGRP1 Receptor (Homo sapiens, UniProt O60894+Q16602)"
observed_property = "IC50"
value = "< 10 nM"

[[record]]
compound = "Cc1cc(CC(OC(=O)N2CCC(N3Cc4cccc(F)c4NC3=O)CC2)c2cc3ccccc3cn2)cc2cn[nH]c12 (stereo not shown) [Example 52]"
system_tested = "Human CGRP1 Receptor (Homo sapiens, UniProt O60894+Q16602)"
observed_property = "IC50"
value = "< 10 nM"

[[record]]
compound = "Cc1c[nH]c(C(Cc2cc(C)c3[nH]ncc3c2)NC(=O)N2CCC(N3Cc4ccccc4NC3=O)CC2)n1 (racemic) [Example 90]"
system_tested = "Human CGRP1 Receptor (Homo sapiens, UniProt O60894+Q16602)"
observed_property = "IC50"
value = "100 to 1000 nM"

[[record]]
compound = "Cc1cc(CC(NC(=O)N2CCC(N3Cc4ccccc4NC3=O)CC2)c2ncc[nH]2)cc2cn[nH]c12 (racemic) [Example 65]"
system_tested = "Human CGRP1 Receptor (Homo sapiens, UniProt O60894+Q16602)"
observed_property = "IC50"
value = "10 to 100 nM"

[[record]]
compound = "Cc1cc(CC(NC(=O)N2CCC(N3Cc4ccccc4NC3=O)CC2)c2nccn2C)cc2cn[nH]c12 (racemic) [Example 66]"
system_tested = "Human CGRP1 Receptor (Homo sapiens, UniProt O60894+Q16602)"
observed_property = "IC50"
value = "< 10 nM"

[[record]]
compound = "Cc1cc(CC(NC(=O)N2CCC(N3Cc4ccccc4NC3=O)CC2)c2nccn2Cc2cc(F)cc(F)c2)cc2cn[nH]c12 (racemic) [Example 69]"
system_tested = "Human CGRP1 Receptor (Homo sapiens, UniProt O60894+Q16602)"
observed_property = "IC50"
value = "< 10 nM"

[[record]]
compound = "Cc1cc(CC(CC(=O)N2CCC(N3Cc4ccccc4NC3=O)CC2)c2ccccn2)cc2cn[nH]c12 (racemic) [Example 1]"
system_tested = "Human CGRP1 Receptor (Homo sapiens, UniProt O60894+Q16602)"
observed_property = "IC50"
value = "< 10 nM"

[[record]]
compound = "Cc1cc(CC(CC(=O)N2CCC(N3Cc4ccccc4NC3=O)CC2)c2nc(CN(C)C)no2)cc2cn[nH]c12 (racemic) [Example 7]"
system_tested = "Human CGRP1 Receptor (Homo sapiens, UniProt O60894+Q16602)"
observed_property = "IC50"
value = "10 to 100 nM"

[[record]]
compound = "Cc1cc(CC(CC(=O)N2CCC(N3Cc4ccccc4NC3=O)CC2)c2ccc(CN3CCCCC3)cn2)cc2cn[nH]c12 (racemic) [Example 29]"
system_tested = "Human CGRP1 Receptor (Homo sapiens, UniProt O60894+Q16602)"
observed_property = "IC50"
value = "< 10 nM"

[[record]]
compound = "Cc1cc(CC(NC(=O)N2CCC(N3Cc4ccccc4NC3=O)CC2)c2cc([N+](=O)[O-])ccn2)cc2cn[nH]c12 (racemic) [Example 32]"
system_tested = "Human CGRP1 Receptor (Homo sapiens, UniProt O60894+Q16602)"
observed_property = "IC50"
value = "< 10 nM"


Provenance of the data: patent US7569578B2
